Parameter 'readout' = IC50; parameter 'system' = JAK3 kinase (Homo sapiens (Human), UniProt P52333).
Sequence (P52333 whole entry): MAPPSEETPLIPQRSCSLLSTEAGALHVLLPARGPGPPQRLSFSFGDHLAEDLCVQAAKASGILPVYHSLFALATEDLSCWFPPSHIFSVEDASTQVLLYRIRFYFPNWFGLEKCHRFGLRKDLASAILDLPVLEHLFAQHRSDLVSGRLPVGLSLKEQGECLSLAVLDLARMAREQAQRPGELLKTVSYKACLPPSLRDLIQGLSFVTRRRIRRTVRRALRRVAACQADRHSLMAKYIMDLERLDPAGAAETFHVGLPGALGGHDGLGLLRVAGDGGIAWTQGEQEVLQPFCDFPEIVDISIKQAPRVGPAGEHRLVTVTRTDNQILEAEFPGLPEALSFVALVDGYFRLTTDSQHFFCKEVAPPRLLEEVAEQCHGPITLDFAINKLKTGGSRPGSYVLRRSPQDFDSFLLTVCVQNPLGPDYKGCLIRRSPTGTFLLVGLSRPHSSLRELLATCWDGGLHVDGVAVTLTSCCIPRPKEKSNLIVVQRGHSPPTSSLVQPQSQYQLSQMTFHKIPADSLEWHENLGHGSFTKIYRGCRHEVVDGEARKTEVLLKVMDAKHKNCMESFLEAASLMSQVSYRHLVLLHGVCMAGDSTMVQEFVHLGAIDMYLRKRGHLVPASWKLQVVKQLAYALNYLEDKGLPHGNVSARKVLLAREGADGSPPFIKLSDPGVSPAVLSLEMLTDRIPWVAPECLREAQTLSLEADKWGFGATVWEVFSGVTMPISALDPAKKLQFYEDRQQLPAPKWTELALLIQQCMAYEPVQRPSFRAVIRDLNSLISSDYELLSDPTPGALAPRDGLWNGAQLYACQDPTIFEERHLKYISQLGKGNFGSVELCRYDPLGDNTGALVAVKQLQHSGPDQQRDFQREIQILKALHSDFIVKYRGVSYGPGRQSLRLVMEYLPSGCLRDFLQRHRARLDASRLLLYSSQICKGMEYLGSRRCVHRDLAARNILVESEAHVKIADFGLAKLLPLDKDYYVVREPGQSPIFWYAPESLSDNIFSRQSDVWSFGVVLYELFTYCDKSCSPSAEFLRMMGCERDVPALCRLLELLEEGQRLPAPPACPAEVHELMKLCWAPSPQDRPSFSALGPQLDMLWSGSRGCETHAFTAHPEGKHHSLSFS

Example results:
Ask | Tell me its IC50 on JAK3 kinase (Homo sapiens (Human), UniProt P52333): CC(C)Nc1c(C(=O)NC[C@@H](F)C(C)(C)O)cnc2cc(-c3ccccn3)nn12
Reply | > 10 µM

Ask | Give reported IC50 for CNC(=O)c1cncc(-c2cc3ncc(C(=O)NC[C@@H](F)C(C)(C)O)c(NC(C)C)n3n2)c1 (JAK3 kinase (Homo sapiens (Human), UniProt P52333))
Reply | > 10 µM

Ask | Lab note: record IC50 of CC(C)(O)[C@H](F)CNC(=O)c1cnc2cc(-c3cccnc3)nn2c1N[C@H]1CCN(c2cnc(F)nc2)C1 tested on JAK3 kinase (Homo sapiens (Human), UniProt P52333).
Reply | > 10 µM

Continuing:
Ask | # lookup: JAK3 kinase (Homo sapiens (Human), UniProt P52333) IC50, key = CC(C)Nc1c(C(=O)NC[C@@H](F)C(C)(C)O)cnn2cc(-c3cccnc3F)cc12
Reply | > 10 µM

Ask | Consider the compound CC(C)Nc1c(C(=O)NC[C@@H](F)C(C)(C)O)cnc2cc(C3CC3)nn12 tested on JAK3 kinase (Homo sapiens (Human), UniProt P52333); state its IC50.
Reply | > 50 µM

Ask | Provide measured IC50 on JAK3 kinase (Homo sapiens (Human), UniProt P52333) for CC(C)Nc1c(C(=O)NC[C@@H](F)C(C)(C)O)cnc2cc(-c3ccccc3)nn12 please.
Reply | > 10 µM

Ask | Report IC50 under test system JAK3 kinase (Homo sapiens (Human), UniProt P52333) for CC(C)Nc1c(C(=O)N[C@H]2CC[C@H](O)CC2)cnn2cc(-c3ccncc3)cc12 .
Reply | > 50 µM

Ask | Find IC50 for CC(C)(O)CCNc1c(C(=O)NC[C@@H](F)C(C)(C)O)cnn2cc(-c3ccc(C#N)nc3)cc12 on JAK3 kinase (Homo sapiens (Human), UniProt P52333) and write it down.
Reply | > 50 µM

Ask | State IC50 on JAK3 kinase (Homo sapiens (Human), UniProt P52333). Entry: CC(C)Nc1c(C(=O)NC[C@@H](F)C(C)(C)O)cnc2cc(-c3ccncc3F)nn12
Reply | > 10 µM

Ask | Param request: IC50 | system JAK3 kinase (Homo sapiens (Human), UniProt P52333) | item CC(C)(O)[C@H](F)CNC(=O)c1cnn2cc(-c3ccncc3)cc2c1NC1CCOCC1
Reply | > 50 µM

Ask | Give the observed IC50 of COc1ccc(-c2cc3ncc(C(=O)NC[C@@H](F)C(C)(C)O)c(NC(C)C)n3n2)cn1 for JAK3 kinase (Homo sapiens (Human), UniProt P52333).
Reply | > 10 µM

Ask | Write down measured IC50 (JAK3 kinase (Homo sapiens (Human), UniProt P52333)) for this compound. CC(C)Nc1c(C(=O)NC2CCN(S(C)(=O)=O)CC2)cnn2cc(-c3ccc(F)nc3)cc12
Reply | ~31 µM

* * *

Biological target: IRAK4 (Homo sapiens (Human), UniProt Q9NWZ3)
Sequence (Q9NWZ3 whole entry, species assumed): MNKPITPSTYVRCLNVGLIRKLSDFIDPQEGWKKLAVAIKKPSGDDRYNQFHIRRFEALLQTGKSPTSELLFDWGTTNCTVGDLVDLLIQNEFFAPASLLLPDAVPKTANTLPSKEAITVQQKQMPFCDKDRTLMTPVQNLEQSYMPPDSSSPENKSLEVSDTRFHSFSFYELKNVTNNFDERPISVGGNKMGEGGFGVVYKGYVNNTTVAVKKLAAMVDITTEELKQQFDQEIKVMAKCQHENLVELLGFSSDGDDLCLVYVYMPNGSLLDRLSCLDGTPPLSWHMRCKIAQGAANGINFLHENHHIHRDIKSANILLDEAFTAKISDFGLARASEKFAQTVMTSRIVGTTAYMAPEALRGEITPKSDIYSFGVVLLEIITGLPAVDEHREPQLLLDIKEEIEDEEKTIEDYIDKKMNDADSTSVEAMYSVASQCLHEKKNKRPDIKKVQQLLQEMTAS
# Lookup of reported log10(IC50) keyed by entry
Heads up: the numbers are on a log10 scale; they represent IC50 in nM.

Please review the entries below; each comes with its answer.
Ask | Provide log10(IC50), recorded with IRAK4 (Homo sapiens (Human), UniProt Q9NWZ3), of CC(C)Nc1c(C(=O)NC[C@@H](F)C(C)(C)O)cnc2cc(-c3cc[nH]c(=O)c3)nn12 [Example 154]
Reply | 1.97

Ask | Using IRAK4 (Homo sapiens (Human), UniProt Q9NWZ3) as the test system, report measured log10(IC50) of COc1ccc(-c2cc3ncc(C(=O)NC[C@@H](F)C(C)(C)O)c(NC(C)C)n3n2)cn1 [Example 142] .
Reply | 2.15

Ask | Provide measured log10(IC50) on IRAK4 (Homo sapiens (Human), UniProt Q9NWZ3) for CC(=O)N[C@H]1CC[C@H](NC(=O)c2cnn3cc(-c4ccncc4F)cc3c2NC(C)C)CC1 [Example 65] please.
Reply | 0.20

Ask | Report value: log10(IC50), system: IRAK4 (Homo sapiens (Human), UniProt Q9NWZ3), compound: CC(=O)N[C@H]1CC[C@H](NC(=O)c2cnn3cc(-c4c(C)ccnc4F)cc3c2NC(C)C)CC1 [Example 66]
Reply | 1.77

Ask | Specify log10(IC50) for CC(C)Nc1c(C(=O)NC[C@@H](F)C(C)(C)O)cnn2cc(-c3cncnc3)cc12 [Example 4] , system IRAK4 (Homo sapiens (Human), UniProt Q9NWZ3).
Reply | 1.28

Ask | Find the measured log10(IC50) of COc1cc(-c2cc3c(NC4CCOCC4)c(C(=O)NC[C@@H](F)C(C)(C)O)cnn3c2)ccn1 [Example 11] with IRAK4 (Homo sapiens (Human), UniProt Q9NWZ3) as test system.
Reply | 1.93

Ask | State, for IRAK4 (Homo sapiens (Human), UniProt Q9NWZ3), measured log10(IC50) of the compound listed here: CC(C)Nc1c(C(=O)NC[C@@H](F)C(C)(C)O)cnn2cc(-c3ccc(C#N)nc3)nc12 [Example 101]
Reply | 1.85

Ask | Name the value of log10(IC50) reported for Cc1cc(F)ncc1-c1cc2c(NC(C)C)c(C(=O)N[C@H]3CC[C@H](C(=O)N4CCOCC4)CC3)cnn2c1 [Example 83] when tested on IRAK4 (Homo sapiens (Human), UniProt Q9NWZ3).
Reply | 1.36

Others:
Ask | Answer briefly: log10(IC50) recorded on IRAK4 (Homo sapiens (Human), UniProt Q9NWZ3) for CC(C)Nc1c(C(=O)NC[C@@H](F)C(C)(C)O)cnc2cc(-c3ncco3)nn12 [Example 134]
Reply | 2.34

Ask | Give log10(IC50); test system IRAK4 (Homo sapiens (Human), UniProt Q9NWZ3); compound CC(C)(C)CNc1c(C(=O)NC[C@@H](F)C(C)(C)O)cnc2cc(-c3cccnc3)nn12 [Example 155]
Reply | 1.95

* * *

Target: JAK3 kinase (Homo sapiens (Human))
Assay: JAK3 Homogeneous Time Resolved Fluorescence (HTRF) Assay
Type: binding
Details: selectivity for IRAK4 over JAK3
Ratio of JAK3 IC50 to IRAK4 IC50 by entry:

Ask | Answer with the recorded Ratio of JAK3 IC50 to IRAK4 IC50 of CC(C)(O)[C@H](F)CNC(=O)c1cnn2cc(-c3cccnc3)cc2c1NC1CCOCC1 [Example 6] only.
Reply | >926

Continuing:
Ask | Fill in Ratio of JAK3 IC50 to IRAK4 IC50 for record CC(C)(O)CCNc1c(C(=O)NC[C@@H](F)C(C)(C)O)cnn2cc(-c3ccncc3)cc12 [Example 28]
Reply | >1241

Ask | Fill in Ratio of JAK3 IC50 to IRAK4 IC50 for record Cc1ccccc1-c1cc2ncc(C(=O)NC[C@@H](F)C(C)(C)O)c(NC(C)C)n2n1 [Example 136]
Reply | >20

Ask | Recall and state the measured Ratio of JAK3 IC50 to IRAK4 IC50 for CC(C)Nc1c(C(=O)NC[C@@H](F)C(C)(C)O)cnn2cc(Nc3ncc(C#N)cc3Cl)cc12 [Example 42] .
Reply | >1923

Ask | Answer with the recorded Ratio of JAK3 IC50 to IRAK4 IC50 for the compound listed here: CC(C)Nc1c(C(=O)N[C@H]2CC[C@H](O)CC2)cnn2cc(-c3ccncc3)cc12 [Example 60]
Reply | >5263

Ask | Look up Ratio of JAK3 IC50 to IRAK4 IC50 of CC(C)Nc1c(C(=O)NCCC(C)(C)O)cnn2cc(-c3ccncc3)nc12 [Example 105] and report it.
Reply | >806

Ask | Quickly give me recorded Ratio of JAK3 IC50 to IRAK4 IC50 for CC(C)Nc1c(C(=O)NC[C@@H](F)C(C)(C)O)cnc2cc(-c3cccnc3)nn12 [Example 115]
Reply | >400

Ask | Give Ratio of JAK3 IC50 to IRAK4 IC50 for the following compound: CC(C)Nc1c(C(=O)NCCN2CCOCC2)cnn2cc(-c3ccncc3F)nc12 [Example 106]
Reply | >2273

* * *

Biological target: IRAK4 (Homo sapiens (Human), UniProt Q9NWZ3)
ASSAY METRIC: pIC50
Scale for pIC50: -log10 of concentration given in mol/L; no unit attached.

Ask | Give the reported pIC50 for this compound. CC(C)Nc1c(C(=O)NC[C@@H](F)C(C)(C)O)cnn2cc(-c3ccnn3C)cc12
Reply | 7.59

Ask | Respond only with pIC50 recorded for CC(C)(O)[C@H](F)CNC(=O)c1cnc2cc(-c3ccncc3F)nn2c1NCCC1CCCCO1 (some centres unmarked)
Reply | 7.35

Ask | Report pIC50 for CC(C)Nc1c(C(=O)NC[C@@H](F)C(C)(C)O)cnc2cc(-c3cccc(F)c3)nn12
Reply | 7.09

Ask | Supply measured pIC50 of CC(C)Nc1c(C(=O)N[C@H]2CC[C@H](N)CC2)cnn2cc(-c3cccnc3)cc12 in your reply.
Reply | 7.40

Ask | Report pIC50, nothing else, for this compound: COC(=O)Nc1cc(-c2cc3c(NC(C)C)c(C(=O)NC[C@@H](F)C(C)(C)O)cnn3c2)ccn1
Reply | 8.04

Ask | Give me measured pIC50, please, for this compound: CC(C)Nc1c(C(=O)NC[C@@H](F)C(C)(C)O)cnn2cc(-c3cccnc3F)cc12
Reply | 8.19

Ask | Give me measured pIC50, please, for this compound: CC(=O)N[C@H]1CC[C@H](NC(=O)c2cnn3cc(-c4cnccc4C)cc3c2NC(C)C)CC1
Reply | 7.85

Ask | Identify pIC50 associated with the compound CC(C)(O)CCNc1c(C(=O)NC[C@@H](F)C(C)(C)O)cnn2cc(-c3ccncc3)cc12
Reply | 7.39
